Here the recorded gcPBM binding intensity (ln) is given for each entry.
# System: PfHDP1 homeodomain (GST-tagged)
# assay_overview: gcPBM binding intensity (ln(normalized median fluorescence intensity)); higher = stronger DNA binding
The full ranking holds about 25,000 sequences; the median of “ln(normalized median fluorescence intensity)” is about 6.7, and the highest 2% start at about 10. Many of the other results were omitted from the sample, so the highest values are more common in it than they were.

chain_sequence | gcPBM binding intensity (ln)
CATATATATTTGTTCACACACACACTAATAAAAAAA [CACACA_site8787] | 6.85
TAATTCACATTTTATACACACATTCGAACCTTTTTT [CACACA_site3341] | 6.88
AAAATATTTATATTTACACACACATAATACATATAT [CACACA_site32] | 6.84
ATATTTCATTAATGAACACACAAAGAGGTATATAAA [CACACA_site1519] | 6.86
